tested on: GABA transporter Slc6a13 (Mus musculus); test: Residual mouse GAT3-mediated [3H]GABA uptake expressed in human HEK cells at 1 mM; settings: HEK293
observable: residual activity (%)
The figure you give is taken to be in %; do not add the unit.

Reference set, count: 4
CC(C)(C)CC(C)(C)n1nnnc1CNCCN :: 71.1
C1CN(Cc2nnn[nH]2)CCN1 :: 102
C1CN(Cc2nnn[nH]2)CCO1 :: 87.8
NCCNCc1nnn[nH]1 :: 86.3

Okay, next one:
API: value(readout= residual activity, system= GABA transporter Slc6a13 (Mus musculus), query= NCc1nnn[nH]1 ) 66.5

The reported numbers originate from ChEMBL document CHEMBL1914421.
